Experiment: Cell cycle arrest in human HeLaS3 cells assessed as accumulation at G2/M phase at 1 uM after 12 hrs by flow cytometry
Type: functional, cell-based
Conditions: HeLa S3
Entries and their Activity
Record the value in %, omitting the unit from your answer.

Worked cases, Activity given:
lineNotation | Activity, %
c1ccc(CNc2cc3c(cn2)[nH]c2ccccc23)cc1 | 84.3
Oc1cccc(CNc2cc3c(cn2)[nH]c2ccccc23)c1 | 31.3
C[n+]1cc2[nH]c3ccccc3c2cc1NCc1ccccc1 | 73.5

Now, please, on to the next compound.
Problem: Identify the reported Activity for the following entry. c1ccc2c(c1)[nH]c1cnc(NCC3CCCCC3)cc12
Solution: 28.9

====

Let's look at some compounds and their measured Activity.
Assay: Cell cycle arrest in human HeLaS3 cells assessed as accumulation at S phase at 5 uM after 12 hrs by flow cytometry
Type: functional, cell-based
Details: HeLa S3
Give just the number in %; leave the unit off.

Example entries and their recorded answers appear below.
lineNotation | readoutValue
Oc1cccc(CNc2cc3c(cn2)[nH]c2ccccc23)c1 | 8.9
c1ccc(CNc2cc3c(cn2)[nH]c2ccccc23)cc1 | 12.5
c1ccc2c(c1)[nH]c1cnc(NCC3CCCCC3)cc12 | 12.3

Would you kindly look at the next entry?
Problem: Complete the entry with Activity for C[n+]1cc2[nH]c3ccccc3c2cc1NCc1ccccc1
Solution: 10

====

Test: Cell cycle arrest in human HeLaS3 cells assessed as accumulation at G1 phase at 1 uM after 24 hrs by flow cytometry
Assay type: functional, cell-based
Details: HeLa S3
measurementLabel: Activity

In the examples that follow, each entry is paired with its recorded Activity.
lineNotation | Activity
c1ccc2c(c1)[nH]c1cnc(NCC3CCCCC3)cc12 | 68.2%
Oc1cccc(CNc2cc3c(cn2)[nH]c2ccccc23)c1 | 58.5%
C[n+]1cc2[nH]c3ccccc3c2cc1NCc1ccccc1 | 38.4%

Turning now to a further record.
Problem: Entry c1ccc(CNc2cc3c(cn2)[nH]c2ccccc23)cc1 needs its Activity filled in; supply it.
Solution: 1.1%
